Overview of reported pIC50 across a group of compounds:
molecular target: Dimer of Gag-Pol polyprotein [489-587] (Human immunodeficiency virus 1); construct: 489-587; assay: Protease Inhibition Assay; conditions: pH 6; 37 °C
pIC50 (log units): -log10 of the concentration in mol/L.

input-smiles	pIC50
CCNC(=O)[C@@H](NC(=O)Cc1ccccc1)[C@@H]1N[C@@H](C(=O)NCCNC(=O)[C@@H]2N[C@@H]([C@H](NC(=O)Cc3ccccc3)C(=O)NCC)SC2(C)C)C(C)(C)S1	8.32

pIC50 reported for this compound CC1(C)S[C@H]([C@H](NC(=O)Cc2ccccc2)C(N)=O)N[C@H]1C(=O)NCCNC(=O)[C@@H]1N[C@@H]([C@H](NC(=O)Cc2ccccc2)C(N)=O)SC1(C)C : 8.52

pIC50 reported for this compound COC(=O)[C@@H](NC(=O)Cc1ccccc1)[C@@H]1N[C@@H](C(=O)NCCNC(=O)[C@@H]2N[C@@H]([C@H](NC(=O)Cc3ccccc3)C(=O)OC)SC2(C)C)C(C)(C)S1 : 7.22
